- protocol: Cmax in Enterococcus faecalis infected Wistar rat at single administration of 1 g, iv
- Assay type: ADME, organism-based
- Design: dose 1 g, route intravenous
- conditionNotes: in vivo
experimentalReadout: Cmax (ng/mL)
Only the number, expressed in ng/mL, is required.

[ask] Read off the recorded Cmax for CN[C@H](CC(C)C)C(=O)N[C@H]1C(=O)N[C@@H](CC(N)=O)C(=O)N[C@H]2C(=O)N[C@H]3C(=O)N[C@H](C(=O)N[C@H](C(=O)O)c4cc(O)cc(O)c4-c4cc3ccc4O)[C@H](O)c3ccc(c(Cl)c3)Oc3cc2cc(c3O[C@@H]2O[C@H](CO)[C@@H](O)[C@H](O)[C@H]2O[C@H]2C[C@](C)(N)[C@H](O)[C@H](C)O2)Oc2ccc(cc2Cl)[C@H]1O [VANCOMYCIN]
[reply] 37800
